# assay_system: Metallo-beta-lactamase type 2 (Klebsiella pneumoniae)
# Sequence (C7C422 whole entry): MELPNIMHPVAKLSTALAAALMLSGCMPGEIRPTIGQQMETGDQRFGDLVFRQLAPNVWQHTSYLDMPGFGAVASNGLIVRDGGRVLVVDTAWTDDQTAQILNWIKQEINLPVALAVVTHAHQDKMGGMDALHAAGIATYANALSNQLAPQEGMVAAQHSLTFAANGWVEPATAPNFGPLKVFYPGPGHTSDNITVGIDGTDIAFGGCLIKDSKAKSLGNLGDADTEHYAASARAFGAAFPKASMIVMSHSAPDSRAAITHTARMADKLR
# method_summary: Time-dependent inhibition of wild type Klebsiella pneumoniae 6xHis-tagged metallo-beta-lactamase NDM-1 expressed in Escherichia coli BL21 (DE3)pLysS
measured_parameter: Ki (nM)
One number for each entry, in nM.

Inquiry: Enter reported Ki observed with Metallo-beta-lactamase type 2 (Klebsiella pneumoniae) for O=Cc1coc2ccccc2c1=O
Reply text: 580
